biological target: Phosphatidylinositol 4,5-bisphosphate 3-kinase catalytic subunit alpha isoform (Homo sapiens, UniProt P42336); assay: Inhibitory Activities of Compounds on PI3Kα, PI3Kβ, PI3Kγ, and PI3Kδ Kinase: ADP-Glo Kinase Assay
Sequence (P42336 whole entry, canonical isoform): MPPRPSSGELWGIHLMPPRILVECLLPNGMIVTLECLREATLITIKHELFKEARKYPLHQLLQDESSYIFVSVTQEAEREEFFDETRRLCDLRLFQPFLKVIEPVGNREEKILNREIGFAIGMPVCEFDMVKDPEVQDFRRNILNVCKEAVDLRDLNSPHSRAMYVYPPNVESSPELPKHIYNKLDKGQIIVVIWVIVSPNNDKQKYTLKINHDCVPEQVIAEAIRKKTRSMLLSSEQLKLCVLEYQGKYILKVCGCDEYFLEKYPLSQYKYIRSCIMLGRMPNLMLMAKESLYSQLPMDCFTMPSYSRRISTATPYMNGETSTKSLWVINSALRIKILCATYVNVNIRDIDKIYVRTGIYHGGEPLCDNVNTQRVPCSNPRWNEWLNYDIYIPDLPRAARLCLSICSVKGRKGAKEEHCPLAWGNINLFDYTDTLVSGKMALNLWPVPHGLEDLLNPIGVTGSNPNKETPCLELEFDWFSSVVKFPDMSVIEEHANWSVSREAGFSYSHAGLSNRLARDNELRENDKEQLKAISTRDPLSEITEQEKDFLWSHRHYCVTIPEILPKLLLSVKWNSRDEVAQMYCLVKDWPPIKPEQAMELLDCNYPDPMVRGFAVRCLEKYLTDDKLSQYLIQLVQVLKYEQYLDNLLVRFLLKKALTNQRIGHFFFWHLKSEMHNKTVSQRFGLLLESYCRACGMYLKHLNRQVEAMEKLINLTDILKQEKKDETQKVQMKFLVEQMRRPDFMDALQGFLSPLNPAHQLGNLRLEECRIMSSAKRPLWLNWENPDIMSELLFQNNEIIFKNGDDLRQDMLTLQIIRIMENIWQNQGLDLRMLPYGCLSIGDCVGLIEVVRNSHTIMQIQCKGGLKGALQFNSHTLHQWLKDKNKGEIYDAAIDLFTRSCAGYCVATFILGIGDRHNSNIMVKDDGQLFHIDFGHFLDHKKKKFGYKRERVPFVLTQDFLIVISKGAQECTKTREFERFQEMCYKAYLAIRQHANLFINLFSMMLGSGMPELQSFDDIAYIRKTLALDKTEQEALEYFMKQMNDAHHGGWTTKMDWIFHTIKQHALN
pIC50: −log10 of the molar value.
Measured Endpoint: pIC50

Return reported pIC50; argument: Cn1c(=O)n2c3c4c(c(-c5ccc(OCCCN6CCCCC6)nc5)c(F)cc4ncc31)OC1CCCCC12 (stereo unspecified) [US20240294545, Compound A-21] < 5.00

----------
Molecular target: Phosphatidylinositol 4,5-bisphosphate 3-kinase catalytic subunit delta isoform (Homo sapiens)
Sequence (O00329 whole entry): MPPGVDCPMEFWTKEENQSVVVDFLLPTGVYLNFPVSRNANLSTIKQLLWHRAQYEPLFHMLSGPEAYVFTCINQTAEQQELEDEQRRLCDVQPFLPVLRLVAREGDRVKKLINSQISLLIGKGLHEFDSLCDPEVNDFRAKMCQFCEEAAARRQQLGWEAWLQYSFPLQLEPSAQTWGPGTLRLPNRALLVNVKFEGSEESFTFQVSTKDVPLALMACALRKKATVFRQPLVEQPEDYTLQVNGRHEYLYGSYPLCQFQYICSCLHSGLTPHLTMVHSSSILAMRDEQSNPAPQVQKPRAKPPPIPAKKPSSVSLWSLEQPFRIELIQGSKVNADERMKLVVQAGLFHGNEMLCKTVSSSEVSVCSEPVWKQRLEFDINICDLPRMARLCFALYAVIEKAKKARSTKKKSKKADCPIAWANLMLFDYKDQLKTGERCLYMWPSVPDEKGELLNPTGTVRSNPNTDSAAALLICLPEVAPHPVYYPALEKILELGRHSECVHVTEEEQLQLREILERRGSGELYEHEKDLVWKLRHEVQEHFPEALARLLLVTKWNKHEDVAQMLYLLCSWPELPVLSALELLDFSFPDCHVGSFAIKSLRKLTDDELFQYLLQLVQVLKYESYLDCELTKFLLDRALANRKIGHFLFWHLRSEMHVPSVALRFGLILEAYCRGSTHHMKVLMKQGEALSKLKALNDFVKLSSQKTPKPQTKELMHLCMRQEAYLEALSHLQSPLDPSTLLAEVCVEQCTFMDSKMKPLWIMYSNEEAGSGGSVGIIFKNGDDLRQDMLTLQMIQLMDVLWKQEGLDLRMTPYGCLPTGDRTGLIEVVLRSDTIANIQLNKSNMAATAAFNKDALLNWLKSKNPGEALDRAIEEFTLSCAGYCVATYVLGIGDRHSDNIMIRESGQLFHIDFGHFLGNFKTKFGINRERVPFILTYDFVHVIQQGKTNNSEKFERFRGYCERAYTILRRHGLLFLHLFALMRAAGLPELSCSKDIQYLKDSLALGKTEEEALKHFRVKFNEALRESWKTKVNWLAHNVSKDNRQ
Assay: Inhibitory Activities of Compounds on PI3Kα, PI3Kβ, PI3Kγ, and PI3Kδ Kinase: ADP-Glo Kinase Assay
Measured Endpoint: IC50

What value of measured IC50 is listed for Cn1c(=O)n2c3c4c(c(-c5ccc(OCCCN6CCCCC6)nc5)c(F)cc4ncc31)OC1CCCCC12 (stereo unspecified) ? > 10 µM

----------
molecular target: Serine-protein kinase ATM (Homo sapiens)
Sequence (Q13315 whole entry): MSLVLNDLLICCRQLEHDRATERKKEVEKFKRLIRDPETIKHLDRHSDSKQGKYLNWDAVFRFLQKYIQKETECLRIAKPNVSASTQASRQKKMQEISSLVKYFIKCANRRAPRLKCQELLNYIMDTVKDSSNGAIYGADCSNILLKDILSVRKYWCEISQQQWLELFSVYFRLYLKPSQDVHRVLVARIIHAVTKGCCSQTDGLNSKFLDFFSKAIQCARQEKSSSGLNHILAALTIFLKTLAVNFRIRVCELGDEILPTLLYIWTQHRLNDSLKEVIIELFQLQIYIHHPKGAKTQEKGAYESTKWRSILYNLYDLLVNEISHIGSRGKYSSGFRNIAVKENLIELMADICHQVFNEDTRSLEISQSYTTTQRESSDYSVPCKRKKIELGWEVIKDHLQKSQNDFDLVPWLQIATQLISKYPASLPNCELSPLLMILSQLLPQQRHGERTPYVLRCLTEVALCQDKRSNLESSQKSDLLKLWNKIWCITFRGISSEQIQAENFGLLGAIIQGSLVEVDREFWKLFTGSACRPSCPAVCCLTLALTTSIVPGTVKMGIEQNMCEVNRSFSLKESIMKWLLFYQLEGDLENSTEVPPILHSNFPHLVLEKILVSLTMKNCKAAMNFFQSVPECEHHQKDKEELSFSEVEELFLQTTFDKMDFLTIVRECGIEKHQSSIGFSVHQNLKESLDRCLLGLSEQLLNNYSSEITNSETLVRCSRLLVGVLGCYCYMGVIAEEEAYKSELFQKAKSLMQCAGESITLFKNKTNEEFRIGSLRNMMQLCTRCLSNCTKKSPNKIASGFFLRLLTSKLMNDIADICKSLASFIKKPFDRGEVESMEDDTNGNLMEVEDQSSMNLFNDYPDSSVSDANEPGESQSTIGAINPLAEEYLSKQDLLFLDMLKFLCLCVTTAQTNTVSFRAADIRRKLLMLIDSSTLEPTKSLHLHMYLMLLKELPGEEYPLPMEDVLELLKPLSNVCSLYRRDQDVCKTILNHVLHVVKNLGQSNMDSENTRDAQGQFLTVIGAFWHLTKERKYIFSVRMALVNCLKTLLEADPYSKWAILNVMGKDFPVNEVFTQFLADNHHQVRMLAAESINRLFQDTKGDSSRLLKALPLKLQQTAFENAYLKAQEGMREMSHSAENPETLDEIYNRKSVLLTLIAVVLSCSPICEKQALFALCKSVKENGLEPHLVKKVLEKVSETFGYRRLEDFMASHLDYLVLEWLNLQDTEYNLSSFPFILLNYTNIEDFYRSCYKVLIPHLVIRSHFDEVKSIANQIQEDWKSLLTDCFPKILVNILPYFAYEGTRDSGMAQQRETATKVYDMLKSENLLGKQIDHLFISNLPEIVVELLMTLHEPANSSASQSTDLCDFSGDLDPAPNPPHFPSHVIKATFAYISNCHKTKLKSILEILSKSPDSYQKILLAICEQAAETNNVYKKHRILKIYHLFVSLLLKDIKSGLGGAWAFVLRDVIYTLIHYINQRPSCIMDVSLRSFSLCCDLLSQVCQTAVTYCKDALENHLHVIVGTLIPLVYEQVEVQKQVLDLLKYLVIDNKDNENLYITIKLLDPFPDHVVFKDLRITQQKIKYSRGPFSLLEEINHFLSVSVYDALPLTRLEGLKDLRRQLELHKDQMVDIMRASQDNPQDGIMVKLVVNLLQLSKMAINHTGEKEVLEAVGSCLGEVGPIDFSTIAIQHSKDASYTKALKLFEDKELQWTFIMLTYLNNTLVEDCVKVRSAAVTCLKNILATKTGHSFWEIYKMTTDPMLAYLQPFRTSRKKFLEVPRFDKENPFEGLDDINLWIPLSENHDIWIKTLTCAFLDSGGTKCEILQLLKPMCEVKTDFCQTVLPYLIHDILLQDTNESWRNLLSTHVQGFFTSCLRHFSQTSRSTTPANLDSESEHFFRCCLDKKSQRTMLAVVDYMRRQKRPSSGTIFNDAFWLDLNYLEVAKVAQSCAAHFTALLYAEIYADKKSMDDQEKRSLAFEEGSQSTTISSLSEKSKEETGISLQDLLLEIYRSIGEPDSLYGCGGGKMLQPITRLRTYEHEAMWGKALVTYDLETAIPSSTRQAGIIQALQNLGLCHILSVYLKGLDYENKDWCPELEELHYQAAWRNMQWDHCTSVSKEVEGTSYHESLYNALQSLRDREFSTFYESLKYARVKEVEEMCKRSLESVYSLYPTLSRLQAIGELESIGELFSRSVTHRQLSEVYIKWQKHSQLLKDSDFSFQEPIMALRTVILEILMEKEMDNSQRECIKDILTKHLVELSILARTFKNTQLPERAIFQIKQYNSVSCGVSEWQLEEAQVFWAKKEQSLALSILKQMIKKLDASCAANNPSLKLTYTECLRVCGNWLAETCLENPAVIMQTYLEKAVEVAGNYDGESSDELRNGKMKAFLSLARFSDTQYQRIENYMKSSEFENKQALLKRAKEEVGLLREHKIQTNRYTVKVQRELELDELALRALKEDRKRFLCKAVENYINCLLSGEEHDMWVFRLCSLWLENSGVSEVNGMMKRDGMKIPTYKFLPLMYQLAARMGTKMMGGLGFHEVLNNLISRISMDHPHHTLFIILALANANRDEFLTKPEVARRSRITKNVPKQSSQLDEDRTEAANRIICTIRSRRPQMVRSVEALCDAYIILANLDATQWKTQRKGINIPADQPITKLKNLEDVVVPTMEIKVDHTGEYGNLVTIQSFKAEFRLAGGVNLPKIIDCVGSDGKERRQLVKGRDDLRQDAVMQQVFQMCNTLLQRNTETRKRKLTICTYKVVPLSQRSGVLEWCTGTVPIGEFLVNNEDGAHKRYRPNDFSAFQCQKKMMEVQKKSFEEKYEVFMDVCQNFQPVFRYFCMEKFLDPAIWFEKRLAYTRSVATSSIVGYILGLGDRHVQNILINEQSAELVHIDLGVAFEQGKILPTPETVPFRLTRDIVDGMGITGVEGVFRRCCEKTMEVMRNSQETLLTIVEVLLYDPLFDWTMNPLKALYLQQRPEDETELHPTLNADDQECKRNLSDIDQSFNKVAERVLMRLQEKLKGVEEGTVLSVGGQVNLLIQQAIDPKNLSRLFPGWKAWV
Parameter pIC50: see the listing below.
In simple prose, pIC50 is minus the logarithm base ten of a concentration in moles per litre.

Recorded results for 2 compounds are shown here.
* CC[C@@H]1CNc2c(-c3ccc(OCCCN4CCCCC4)nc3)ccc3ncc4c(c23)n1c(=O)n4C [US20240294545, Compound A-201] | 9.21
* Cn1c(=O)n2c3c4c(c(-c5ccc(OCCCN6CCCCC6)nc5)c(F)cc4ncc31)OCC21CCOCC1 [US20240294545, Compound A-204] | 9.11

# returns recorded pIC50 (system: Serine-protein kinase ATM (Homo sapiens)) for Cn1c(=O)n2c3c4c(c(-c5ccc(OCCCN6CCC(F)CC6)nc5)c(F)cc4ncc31)OCC21CCC1 [US20240294545, Compound A-165] 9.43

----------
Target: Phosphatidylinositol 4,5-bisphosphate 3-kinase catalytic subunit beta isoform (Homo sapiens, UniProt P42338)
Experiment: Inhibitory Activities of Compounds on PI3Kα, PI3Kβ, PI3Kγ, and PI3Kδ Kinase: ADP-Glo Kinase Assay
Procedure: (1) Preparation of 1× kinase buffer50 mM HEPES, pH 7.53 mM MgCl21 mM EGTA100 mM NaCl0.03% CHAPS2 mM DTT(2) Preparation of test compound1) Dissolution and dilution of compound:The compound was dissolved in DMSO to yield a stock solution. […]
pIC50: −log10 of the molar value.
Measured Endpoint: pIC50

Looking for the measured pIC50 of Cn1c(=O)n2c3c4c(c(-c5ccc(OCCCN6CCCCC6)nc5)c(F)cc4ncc31)OC1CCCCC12 (stereo unspecified) , can you help? < 5.00

This collection of values is drawn from BindingDB's records for patent US20240294545.
